All figures here come from paper PMC4829233.

Give TcTryS Activity ± 2σn-1 (%) for every item shown.
target: TcTryS (Trypanosoma cruzi trypanothione synthetase) (Trypanosoma cruzi, UniProt Q9GT49); test: biochemical; format: biochemical
Sequence (Q9GT49 whole entry): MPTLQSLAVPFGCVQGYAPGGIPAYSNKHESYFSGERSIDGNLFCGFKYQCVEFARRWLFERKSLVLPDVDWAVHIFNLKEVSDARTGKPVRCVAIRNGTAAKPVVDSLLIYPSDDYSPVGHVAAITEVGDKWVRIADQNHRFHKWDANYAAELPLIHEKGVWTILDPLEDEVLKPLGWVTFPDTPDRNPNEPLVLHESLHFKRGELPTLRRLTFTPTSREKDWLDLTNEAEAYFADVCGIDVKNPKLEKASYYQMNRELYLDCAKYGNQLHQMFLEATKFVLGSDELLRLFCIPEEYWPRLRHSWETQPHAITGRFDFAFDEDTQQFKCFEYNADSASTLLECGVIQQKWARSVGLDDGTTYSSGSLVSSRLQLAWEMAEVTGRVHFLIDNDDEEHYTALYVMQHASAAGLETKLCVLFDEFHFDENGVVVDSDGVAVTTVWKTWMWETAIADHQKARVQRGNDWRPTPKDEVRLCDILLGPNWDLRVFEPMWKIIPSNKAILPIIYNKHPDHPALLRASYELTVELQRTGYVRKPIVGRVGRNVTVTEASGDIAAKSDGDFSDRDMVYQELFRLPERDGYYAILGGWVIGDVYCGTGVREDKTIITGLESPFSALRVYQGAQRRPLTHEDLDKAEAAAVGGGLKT

Readout TcTryS Activity ± 2σn-1 (%) for COc1ccc(C2C(C(=O)c3ccc4c(c3)OCCO4)=C(O)C(=O)N2c2nc3ccc(Cl)cc3s2)cc1 (stereo not shown) , test system TcTryS (Trypanosoma cruzi trypanothione synthetase) (Trypanosoma cruzi, UniProt Q9GT49), was 98.7 ± 5.1; 4%

Tested system TcTryS (Trypanosoma cruzi trypanothione synthetase) (Trypanosoma cruzi, UniProt Q9GT49); TcTryS Activity ± 2σn-1 (%) recorded for [O-][n+]1onc2cc(I)ccc21 was 90.1 ± 5.9; 3%

Value sought: TcTryS Activity ± 2σn-1 (%), system TcTryS (Trypanosoma cruzi trypanothione synthetase) (Trypanosoma cruzi, UniProt Q9GT49), item O=[N+]([O-])c1ccc2c(c1)no[n+]2[O-] . Result: 76.5 ± 1.0; 3%

Measured TcTryS Activity ± 2σn-1 (%) for this entry Cc1ccc(CNCCCCCCCCNCc2ccc(C)cc2)cc1 on TcTryS (Trypanosoma cruzi trypanothione synthetase) (Trypanosoma cruzi, UniProt Q9GT49): 92.3 ± 4.5; 4%

Measured TcTryS Activity ± 2σn-1 (%) for this entry Fc1ccc(CNCCCCCCCCNCc2ccc(F)cc2)cc1 on TcTryS (Trypanosoma cruzi trypanothione synthetase) (Trypanosoma cruzi, UniProt Q9GT49): 96.0 ± 4.0; 4%

Observed TcTryS Activity ± 2σn-1 (%) on TcTryS (Trypanosoma cruzi trypanothione synthetase) (Trypanosoma cruzi, UniProt Q9GT49), entry O=C(C1=C(O)C(=O)N(c2nc3ccc(Cl)cc3s2)C1c1ccc(F)cc1)c1ccc2c(c1)OCCO2 (stereo not shown) , equals 81.2 ± 4.1; 4%

Record COc1cc(CNCCCCNCc2ccc(O)c(OC)c2)ccc1O has TcTryS (Trypanosoma cruzi trypanothione synthetase) (Trypanosoma cruzi, UniProt Q9GT49) TcTryS Activity ± 2σn-1 (%) equal to 94.4 ± 2.4; 4%

Query c1ccc(CNCCCCCCCCCCCCNCc2ccccc2)cc1 on TcTryS (Trypanosoma cruzi trypanothione synthetase) (Trypanosoma cruzi, UniProt Q9GT49); TcTryS Activity ± 2σn-1 (%) returned: 87.3 ± 5.4; 4%

Entry COc1ccc(C(=O)C2=C(O)C(=O)N(c3nc4ccc(Cl)cc4s3)C2c2ccc(F)cc2)cc1OC (stereo not shown) , TcTryS (Trypanosoma cruzi trypanothione synthetase) (Trypanosoma cruzi, UniProt Q9GT49) data, TcTryS Activity ± 2σn-1 (%) value: 99.6 ± 5.7; 4%

Summary line: c1ccc(COc2ccc(CNCCCCCCCCNCc3ccc(OCc4ccccc4)cc3)cc2)cc1 , TcTryS (Trypanosoma cruzi trypanothione synthetase) (Trypanosoma cruzi, UniProt Q9GT49), reported TcTryS Activity ± 2σn-1 (%) = 66.2 ± 10.9; 2%

Sample COc1cc(CNCCCCCCNCc2ccc(O)c(OC)c2)ccc1O , system: TcTryS (Trypanosoma cruzi trypanothione synthetase) (Trypanosoma cruzi, UniProt Q9GT49). Its TcTryS Activity ± 2σn-1 (%) is 92.9 ± 5.0; 4%

I looked up Fc1ccc(CNCCCCCCCCCCNCc2ccc(F)cc2)cc1 and its TcTryS Activity ± 2σn-1 (%) for TcTryS (Trypanosoma cruzi trypanothione synthetase) (Trypanosoma cruzi, UniProt Q9GT49) was 87.5 ± 4.6; 4%

Summary: Cn1c(=O)c2c(nc(N/N=C\c3ccc(O)cc3O)n2CC(O)COc2ccccc2)n(C)c1=O (stereo not shown) , TcTryS (Trypanosoma cruzi trypanothione synthetase) (Trypanosoma cruzi, UniProt Q9GT49), TcTryS Activity ± 2σn-1 (%) = 161.6 ± 5.3; 3 (0.98) %

Given the compound Cc1cc2no[n+]([O-])c2cc1C and test system TcTryS (Trypanosoma cruzi trypanothione synthetase) (Trypanosoma cruzi, UniProt Q9GT49), the measured TcTryS Activity ± 2σn-1 (%) is 86.4 ± 2.9; 4%

The compound COc1ccc(C2C(C(=O)c3ccc4c(c3)OCCO4)=C(O)C(=O)N2c2nc3ccc(C)cc3s2)cc1 (stereo not shown) , tested on TcTryS (Trypanosoma cruzi trypanothione synthetase) (Trypanosoma cruzi, UniProt Q9GT49), showed TcTryS Activity ± 2σn-1 (%) of 109.7 ± 8.9; 4%

Record COc1ccc(C2C(C(=O)c3ccc4c(c3)OCCO4)=C(O)C(=O)N2c2nc3ccc(OC)cc3s2)cc1 (stereo not shown) has TcTryS (Trypanosoma cruzi trypanothione synthetase) (Trypanosoma cruzi, UniProt Q9GT49) TcTryS Activity ± 2σn-1 (%) equal to 97.6 ± 3.7; 4%

Reading of TcTryS Activity ± 2σn-1 (%) for COc1cc(CNCCCCCCCCNCc2ccc(O)c(OC)c2)ccc1O with TcTryS (Trypanosoma cruzi trypanothione synthetase) (Trypanosoma cruzi, UniProt Q9GT49): 94.5 ± 7.0; 4%

Per the reported TcTryS (Trypanosoma cruzi trypanothione synthetase) (Trypanosoma cruzi, UniProt Q9GT49) data, COc1ccc2c(c1)no[n+]2[O-] has TcTryS Activity ± 2σn-1 (%) of 77.2 ± 4.4; 4%

Assay TcTryS (Trypanosoma cruzi trypanothione synthetase) (Trypanosoma cruzi, UniProt Q9GT49), sample COc1ccc(C2C(C(=O)c3ccc(OC)c(OC)c3)=C(O)C(=O)N2c2nc3ccc(Cl)cc3s2)cc1 (stereo not shown) , TcTryS Activity ± 2σn-1 (%) read: 113.6 ± 3.4; 4%

###

biological target: TcTryS (Trypanosoma cruzi trypanothione synthetase) (Trypanosoma cruzi); test: biochemical; type: biochemical
Task for the reader: assign each of the following compounds its reported TcTryS Activity ± 2σn-1 (%).

Tested on TcTryS (Trypanosoma cruzi trypanothione synthetase) (Trypanosoma cruzi), the item COc1cc(CNCCCNCc2ccc(OCc3ccccc3)c(OC)c2)ccc1OCc1ccccc1 showed TcTryS Activity ± 2σn-1 (%) equal to 63.3 ± 2.7; 2%

Bench note, TcTryS (Trypanosoma cruzi trypanothione synthetase) (Trypanosoma cruzi): COc1ccc(C2C(C(=O)c3ccc4c(c3)OCCO4)=C(O)C(=O)N2c2nc3ccccc3s2)cc1 (stereo not shown) , TcTryS Activity ± 2σn-1 (%) reads 107.1 ± 4.5; 4%

Note to self: TcTryS Activity ± 2σn-1 (%) of [O-][n+]1onc2cc(Br)ccc21 with TcTryS (Trypanosoma cruzi trypanothione synthetase) (Trypanosoma cruzi) was 98.1 ± 4.0; 3%

Observed TcTryS Activity ± 2σn-1 (%), TcTryS (Trypanosoma cruzi trypanothione synthetase) (Trypanosoma cruzi), [O-][n+]1onc2cc(Cl)ccc21 : 63.7 ± 0.5; 4%

Bench note, TcTryS (Trypanosoma cruzi trypanothione synthetase) (Trypanosoma cruzi): CCNC(=S)Nc1nc2nc(NCCCN3CCOCC3)ncc2cc1-c1cc(OC)cc(OC)c1 , TcTryS Activity ± 2σn-1 (%) reads 168.6 ± 4.1; 4 (1.10) %

Form field, TcTryS Activity ± 2σn-1 (%) with TcTryS (Trypanosoma cruzi trypanothione synthetase) (Trypanosoma cruzi), item COc1cc(CNCCCCCCCCCCNCc2ccc(OCc3ccccc3)c(OC)c2)ccc1OCc1ccccc1 : 101.5 ± 1.9; 4 (1.18) %

Tested on TcTryS (Trypanosoma cruzi trypanothione synthetase) (Trypanosoma cruzi), the item [O-][n+]1onc2ccccc21 showed TcTryS Activity ± 2σn-1 (%) equal to 102.2 ± 3.3; 3%

Query O=C(C1=C(O)C(=O)N(c2nc3ccc(Cl)cc3s2)C1c1ccc(O)cc1)c1ccc2c(c1)OCCO2 (stereo not shown) on TcTryS (Trypanosoma cruzi trypanothione synthetase) (Trypanosoma cruzi); TcTryS Activity ± 2σn-1 (%) returned: 93.6 ± 4.7; 3 (0.93) %

TcTryS Activity ± 2σn-1 (%) of [O-][n+]1onc2cc(C(F)(F)F)ccc21 , assay on TcTryS (Trypanosoma cruzi trypanothione synthetase) (Trypanosoma cruzi), is 81.8 ± 2.2; 3%

TcTryS (Trypanosoma cruzi trypanothione synthetase) (Trypanosoma cruzi) assay, compound CC(C)c1ccc(CNCCCCCCCCNCc2ccc(C(C)C)cc2)cc1 , recorded TcTryS Activity ± 2σn-1 (%) = 65.6 ± 5.3; 4 (1.46) %

Reported TcTryS Activity ± 2σn-1 (%) (TcTryS (Trypanosoma cruzi trypanothione synthetase) (Trypanosoma cruzi)) for entry Brc1ccc(CNCCCCCCCCCCNCc2ccc(Br)cc2)cc1 is 81.2 ± 4.2; 3%

The compound COc1ccc2nc(N3C(=O)C(O)=C(C(=O)c4ccc5c(c4)OCCO5)C3c3ccc(OC)c(OC)c3)sc2c1 (stereo not shown) on TcTryS (Trypanosoma cruzi trypanothione synthetase) (Trypanosoma cruzi): TcTryS Activity ± 2σn-1 (%) was 104.0 ± 6.6; 4%

Bench note, TcTryS (Trypanosoma cruzi trypanothione synthetase) (Trypanosoma cruzi): entry Cc1ccc2nc(N3C(=O)C(O)=C(C(=O)c4ccc5c(c4)OCCO5)C3c3ccc(O)cc3)sc2c1 (stereo not shown) , its TcTryS Activity ± 2σn-1 (%) = 103.4 ± 6.4; 2%

Value sought: TcTryS Activity ± 2σn-1 (%), system TcTryS (Trypanosoma cruzi trypanothione synthetase) (Trypanosoma cruzi), item Clc1ccc(CNCCCCCCCCCCCCNCc2ccc(Cl)cc2)cc1 . Result: 76.2 ± 6.6; 4 (1.34) %

Param item: COc1ccc(CNCCCCCCCCCCNCc2ccc(OC)cc2)cc1 ; param system: TcTryS (Trypanosoma cruzi trypanothione synthetase) (Trypanosoma cruzi); output TcTryS Activity ± 2σn-1 (%): 76.1 ± 2.5; 4%

Record for COc1cc2no[n+]([O-])c2cc1OC under target or system TcTryS (Trypanosoma cruzi trypanothione synthetase) (Trypanosoma cruzi): TcTryS Activity ± 2σn-1 (%) reported as 98.1 ± 6.4; 4%

Hey, TcTryS (Trypanosoma cruzi trypanothione synthetase) (Trypanosoma cruzi) data for c1ccc(COc2ccc(CNCCCNCc3ccc(OCc4ccccc4)cc3)cc2)cc1 [APC1-71B] : TcTryS Activity ± 2σn-1 (%) came out at 99.0 ± 19.1; 2%

Item Brc1ccc(CNCCCCCCCCNCc2ccc(Br)cc2)cc1 was tested on TcTryS (Trypanosoma cruzi trypanothione synthetase) (Trypanosoma cruzi); the reported TcTryS Activity ± 2σn-1 (%) is 93.7 ± 7.6; 3%

Tested on TcTryS (Trypanosoma cruzi trypanothione synthetase) (Trypanosoma cruzi): [O-][n+]1onc2c(Cl)cc(Cl)cc21 . Observed TcTryS Activity ± 2σn-1 (%): 95.8 ± 1.1; 3%

Reported TcTryS Activity ± 2σn-1 (%) (TcTryS (Trypanosoma cruzi trypanothione synthetase) (Trypanosoma cruzi)) for entry O=C(C1=C(O)C(=O)N(c2nc3ccccc3s2)C1c1ccc(F)cc1)c1ccc2c(c1)OCCO2 (stereo not shown) is 90.8 ± 5.8; 4%

Assay TcTryS (Trypanosoma cruzi trypanothione synthetase) (Trypanosoma cruzi), sample COc1cc(CNCCCNCc2ccc(O)c(OC)c2)ccc1O , TcTryS Activity ± 2σn-1 (%) read: 92.9 ± 5.6; 4%

Bench note, TcTryS (Trypanosoma cruzi trypanothione synthetase) (Trypanosoma cruzi): c1ccc(CNCCCCCCCCCCNCc2ccccc2)cc1 , TcTryS Activity ± 2σn-1 (%) reads 88.5 ± 6.6; 3%

Value sought: TcTryS Activity ± 2σn-1 (%), system TcTryS (Trypanosoma cruzi trypanothione synthetase) (Trypanosoma cruzi), item CCCCN(CCCC)C(=O)c1cnc(N)o1 . Result: 100.0 ± 5.0; 2%

TcTryS Activity ± 2σn-1 (%) on TcTryS (Trypanosoma cruzi trypanothione synthetase) (Trypanosoma cruzi) for Cc1ccc2nc(N3C(=O)C(O)=C(C(=O)c4ccc5c(c4)OCCO5)C3c3ccc(F)cc3)sc2c1 (stereo not shown) is 93.9 ± 2.1; 3%

Measured TcTryS Activity ± 2σn-1 (%) for this entry COc1ccc2nc(N3C(=O)C(O)=C(C(=O)c4ccc5c(c4)OCCO5)C3c3ccc(O)c(OC)c3)sc2c1 (stereo not shown) on TcTryS (Trypanosoma cruzi trypanothione synthetase) (Trypanosoma cruzi): 102.2 ± 8.8; 4%

Item: Clc1ccc(CNCCCCCCCCCCNCc2ccc(Cl)cc2)cc1 | System: TcTryS (Trypanosoma cruzi trypanothione synthetase) (Trypanosoma cruzi) | TcTryS Activity ± 2σn-1 (%): 73.3 ± 2.3; 4%

With TcTryS (Trypanosoma cruzi trypanothione synthetase) (Trypanosoma cruzi) as the test system, [O-][n+]1onc2cc(F)c(F)cc21 showed TcTryS Activity ± 2σn-1 (%) of 87.4 ± 1.6; 3%

Tested system TcTryS (Trypanosoma cruzi trypanothione synthetase) (Trypanosoma cruzi); TcTryS Activity ± 2σn-1 (%) recorded for Cc1ccc2c(c1)no[n+]2[O-] was 92.6 ± 10.8; 3%

Response field TcTryS Activity ± 2σn-1 (%) (TcTryS (Trypanosoma cruzi trypanothione synthetase) (Trypanosoma cruzi)) for item c1ccc(COc2ccc(CNCCCCCCCCCCNCc3ccc(OCc4ccccc4)cc3)cc2)cc1 : 90.8 ± 12.3; 2%

Reported TcTryS (Trypanosoma cruzi trypanothione synthetase) (Trypanosoma cruzi) TcTryS Activity ± 2σn-1 (%) for item COc1ccc(C2C(C(=O)c3ccc4c(c3)OCCO4)=C(O)C(=O)N2c2nc3ccc(Cl)cc3s2)cc1OC (stereo not shown) was 109.2 ± 1.5; 4%

Form field, TcTryS Activity ± 2σn-1 (%) with TcTryS (Trypanosoma cruzi trypanothione synthetase) (Trypanosoma cruzi), item c1ccc(CNCCCCCCCCNCc2ccccc2)cc1 : 82.8 ± 5.2; 3%

Lab note: compound COc1cc(C2C(C(=O)c3ccc4c(c3)OCCO4)=C(O)C(=O)N2c2nc3ccc(Cl)cc3s2)ccc1O (stereo not shown) tested on TcTryS (Trypanosoma cruzi trypanothione synthetase) (Trypanosoma cruzi); recorded TcTryS Activity ± 2σn-1 (%) was 97.4 ± 6.1; 4%

// assay TcTryS (Trypanosoma cruzi trypanothione synthetase) (Trypanosoma cruzi), entry COc1cc(C2C(C(=O)c3ccc4c(c3)OCCO4)=C(O)C(=O)N2c2nc3ccc(C)cc3s2)ccc1O (stereo not shown) , TcTryS Activity ± 2σn-1 (%) value = 103.1 ± 6.2; 3%

COc1ccc(C2C(C(=O)c3ccc(OC)c(OC)c3)=C(O)C(=O)N2c2nc3ccc(OC)cc3s2)cc1 (stereo not shown) on TcTryS (Trypanosoma cruzi trypanothione synthetase) (Trypanosoma cruzi) gives TcTryS Activity ± 2σn-1 (%) = 98.1 ± 4.7; 4%

Summary: Cc1ccc(CNCCCCCCCCCCNCc2ccc(C)cc2)cc1 , TcTryS (Trypanosoma cruzi trypanothione synthetase) (Trypanosoma cruzi), TcTryS Activity ± 2σn-1 (%) = 68.6 ± 3.9; 2%

Given the compound COc1cc(CNCCCCCCCCCCNCc2ccc(O)c(OC)c2)ccc1O and test system TcTryS (Trypanosoma cruzi trypanothione synthetase) (Trypanosoma cruzi), the measured TcTryS Activity ± 2σn-1 (%) is 88.8 ± 6.5; 4%
